biological target: human TYK2 (JH2domain-pseudokinase) (Homo sapiens (Human), UniProt P29597); assay: TYK2 JH2 Domain Binding Assay (KINOMEscan)
Sequence (P29597 556-888): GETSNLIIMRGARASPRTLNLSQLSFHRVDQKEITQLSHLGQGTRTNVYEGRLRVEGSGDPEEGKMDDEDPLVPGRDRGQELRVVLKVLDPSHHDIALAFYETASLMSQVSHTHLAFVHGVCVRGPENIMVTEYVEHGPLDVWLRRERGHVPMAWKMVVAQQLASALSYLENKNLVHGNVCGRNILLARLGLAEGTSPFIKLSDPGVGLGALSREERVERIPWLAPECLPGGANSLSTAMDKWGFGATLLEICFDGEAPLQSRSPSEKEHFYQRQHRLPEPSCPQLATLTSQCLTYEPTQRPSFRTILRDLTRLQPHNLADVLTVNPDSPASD
Listed here are compounds together with their documented Kd.

Example cases with answers are listed next.
>  <Query Smiles>
CCCCn1cc(-c2cc(NC)n3ncc(C(=O)N[C@@H]4C[C@@H]4F)c3n2)c2cccnc21

>  <Property>
Kd

>  <Result>
200 to 1000 pM

$$$$
>  <Query Smiles>
NC(=O)c1cnn2c(N)cc(Nc3cccc(N4CCOC4=O)n3)nc12

>  <Property>
Kd

>  <Result>
200 to 1000 pM

$$$$
>  <Query Smiles>
CNc1cc(Nc2cc(Cl)cn(-c3cc(C)n(C)n3)c2=O)nc2c(C(=O)N[C@H]3C[C@H]3F)cnn12

>  <Property>
Kd

>  <Result>
< 200 pM

$$$$

For the next question, use this compound.
Prompt: # Kd lookup, item "CNc1cc(Nc2cc(C)cnc2OC2CC2)nc2c(C(=O)NC3CCC3)cnn12"
Completion: 200 to 1000 pM

---

molecular target: JAK2 kinase domain (JH1) (Homo sapiens (Human)); test: JAK2 Radioactive Kinase Assay; assay type: biochemical; conditions: compound at 10 μM; ATP 10 μM; read-out: JAK2 JH1% Inhibition @ 10 μM
Sequence (O60674 849-1124): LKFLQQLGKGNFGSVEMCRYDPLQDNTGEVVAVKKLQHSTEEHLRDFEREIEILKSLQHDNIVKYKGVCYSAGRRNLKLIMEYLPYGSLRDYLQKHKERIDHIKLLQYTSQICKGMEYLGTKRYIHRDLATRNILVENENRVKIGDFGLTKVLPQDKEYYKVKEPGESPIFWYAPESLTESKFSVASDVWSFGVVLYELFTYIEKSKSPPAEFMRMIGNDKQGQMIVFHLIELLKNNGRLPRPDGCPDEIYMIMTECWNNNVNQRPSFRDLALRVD
Listed here are molecules together with their documented inhibition at 10 µM.

>  <Molecule>
CNc1cc(Nc2cccc(C3CCCCO3)n2)nc2c(C(=O)NC3CC3)cnn12 (stereo in doubt) [I-463]

>  <inhibition at 10 µM>
50 to 70%

$$$$
>  <Molecule>
CNc1cc(Nc2cccnc2OC2CC2)nc2c(C(=O)N[C@@H]3CC[C@H]3O)cnn12 (stereo in doubt) [I-366]

>  <inhibition at 10 µM>
< 50%

$$$$
>  <Molecule>
CNc1cc(Nc2cccnc2OC2CCC2)nc2c(C(=O)N[C@H]3C[C@H]3F)cnn12

>  <inhibition at 10 µM>
< 50%

$$$$
>  <Molecule>
CNc1cc(Nc2cccnc2OC(F)F)nc2c(C(=O)N[C@H]3C[C@H]3F)cnn12

>  <inhibition at 10 µM>
50 to 70%

$$$$
>  <Molecule>
CNc1cc(Nc2cccnc2O[C@H]2CC[C@H](O)CC2)nc2c(C(=O)NC3CC3)cnn12

>  <inhibition at 10 µM>
< 50%

$$$$

Prompt: # inhibition at 10 µM lookup, item "CNc1cc(Nc2cccnc2OC2CC2)nc2c(C(=O)N[C@H]3CCC[C@@H]3O)cnn12"
Completion: < 50%

Prompt: # inhibition at 10 µM lookup, item "CNc1cc(Nc2cccn(-c3ccn(C)n3)c2=O)nc2c(C(=O)NC3CCC3)cnn12"
Completion: < 50%

Prompt: # inhibition at 10 µM lookup, item "CNc1cc(Nc2cccn(-c3nc(C)c(C)s3)c2=O)nc2c(C(=O)NC3CCC3)cnn12"
Completion: < 50%

Prompt: # inhibition at 10 µM lookup, item "CNc1cc(Nc2cccn(C[C@H]3CCCCO3)c2=O)nc2c(C(=O)NC3CC3)cnn12"
Completion: < 50%

Prompt: # inhibition at 10 µM lookup, item "CNc1cc(Nc2cccc(N3CC4(CCO4)C3)n2)nc2c(C(=O)N[C@H]3CC[C@H]3O)cnn12"
Completion: < 50%

Prompt: # inhibition at 10 µM lookup, item "CNc1cc(Nc2cc(C)cnc2OC2CC2)nc2c(C(=O)NC3CC3)cnn12"
Completion: < 50%

Prompt: # inhibition at 10 µM lookup, item "CNc1cc(Nc2cccn(-c3cn(C)nc3F)c2=O)nc2c(C(=O)N[C@H]3C[C@H]3F)cnn12"
Completion: < 50%
